hALPPL2 Ka values, listed per item
# measured-target: Human ALPPL2 (Homo sapiens, UniProt P10696)
# Sequence (P10696 with tags, fused parts or gaps): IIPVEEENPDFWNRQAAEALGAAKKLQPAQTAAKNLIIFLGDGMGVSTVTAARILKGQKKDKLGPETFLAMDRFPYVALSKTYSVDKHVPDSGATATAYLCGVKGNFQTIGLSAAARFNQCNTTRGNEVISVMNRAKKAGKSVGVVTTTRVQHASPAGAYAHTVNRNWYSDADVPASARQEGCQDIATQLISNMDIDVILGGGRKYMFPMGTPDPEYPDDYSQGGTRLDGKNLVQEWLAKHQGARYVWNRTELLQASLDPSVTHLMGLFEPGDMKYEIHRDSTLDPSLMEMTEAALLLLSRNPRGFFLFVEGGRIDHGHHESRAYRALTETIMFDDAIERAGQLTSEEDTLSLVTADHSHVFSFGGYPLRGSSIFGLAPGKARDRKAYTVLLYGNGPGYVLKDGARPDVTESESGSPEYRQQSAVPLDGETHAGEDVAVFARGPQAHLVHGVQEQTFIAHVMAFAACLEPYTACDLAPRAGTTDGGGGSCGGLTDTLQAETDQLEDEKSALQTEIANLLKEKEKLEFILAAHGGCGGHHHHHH
# procedure-text: BLI binding kinetics, human ALPPL2 immobilised on AR2G sensors (KD / KD apparent)
# experimental-setup: VHH domains
Write the number in M⁻¹ s⁻¹ without appending the unit.

Example cases with answers are listed next.
# molecule, result-type, quantity-unit, recorded-value
data = [
    ("F08: ALPP/ALPPL2 targeting VHH domain, SEQ ID NO: 35 (protein) VHH: QVQLVESGGGSVQAGGSLRLSCAASGPSLSNYAMGWFRQAPGKEREFVAGISWGGGRTSYTDSVKGRFTISRDNAKNTVYLQMNNLKPEDTGVYYCAGRYGRGRNVEYEYDYWGQGTQVTVSS", "hALPPL2 Ka", "M⁻¹ s⁻¹", 684000),
    ("D04: ALPP/ALPPL2 targeting VHH domain, SEQ ID NO: 26 (protein) VHH: QVQLVESGGGLVQPGGSLRLSCAASESTFSINVMGWYRQAPGKQRELVATITSGDITNYADSVKGRFTISRDNAENTVYLRTNSLKPEDTAVYYCNARGEYHSGNEYDYWGQGTQVTVSS", "hALPPL2 Ka", "M⁻¹ s⁻¹", 754000),
    ("E10: ALPP/ALPPL2 targeting VHH domain, SEQ ID NO: 31 (protein) VHH: QVQLVESGGGLVQAGGSLRLSCAVSGRALSDYNIGWFRQAPGKEREFVARKTWDGSSTRYDDSVKGRFTVSIEDAKNTAYLQMSSLKTEDTAVYYCAAGRYSRARGWEYDYWGQGTQVTVSS", "hALPPL2 Ka", "M⁻¹ s⁻¹", 1640000),
]

Now for another entry.
Query: Consider the molecule D10: ALPP targeting VHH domain, SEQ ID NO: 28 (protein) VHH: QVQLVESGGGLVQPGGSLRLSCAASGSIFSVNTMGWYRQAPGKQRDLVAVATSGGTIHYADSVKGRFTISRDNAKNTVYLQMNSLKPEDTAVYYCNLVVPYGMIAGDHDYWGQGTKVTVSS and give its measured hALPPL2 Ka.
Response: 2300000
